Exercise: for every item that follows, state its recorded MIC.
Tested on: Sal. Enteritidis
Protocol description: minimal inhibitory concentration (MIC) by two-fold agar-plate dilution method
Assay type: cell-based
Measurement setup: Salmonella enterica, ENTERITIDIS; Sal. Enteritides; 10^8 viable cells per ml; HI-agar, 37° C., 20 hours; second part of table
One number for each entry, in µg/mL.

Compound | Numeric result
Cn1nnnc1SCC1=C(C(=O)O)N2C(=O)C(NC(=O)[C@H](NC(=O)COc3c[nH]c(CCl)cc3=O)c3ccccc3)C2SC1 (stereo partly shown) [Example 1-35] | 0.39

Batch: MIC for all items listed.
1. Cc1cc(=O)c(OCC(=O)N[C@@H](C(=O)NC2C(=O)N3C(C(=O)O)=C(CSc4nnnn4C)CSC23)c2ccccc2)c[nH]1 (stereo partly shown) [Example 1-36]
2. Cc1[nH]cc(OCC(=O)N[C@@H](C(=O)NC2C(=O)N3C(C(=O)O)=C(CSc4nnnn4C)CSC23)c2ccc(O)cc2)c(=O)c1Cl (stereo partly shown) [Example 1-37]
3. Cn1nnnc1SCC1=C(C(=O)O)N2C(=O)C(NC(=O)[C@H](NC(=O)COc3c[nH]c(CO)c(Cl)c3=O)c3ccccc3)[C@H]2SC1 (stereo partly shown) [Example 1-34]

0.78
0.05
0.2
